Where do the numbers come from? From PubChem BioAssay (NCI).

System: ACHN renal
Assay: NCI tumour cell line growth inhibition, 48 h
Measure name: TGI

TGI recorded for this compound, COc1cc(C2c3cc4c(cc3OC(O)C2C)OCO4)cc(OC)c1O (configuration not stated) , is > 100 µM

The measured TGI associated with CCCNNC(=O)c1ccc(CNC(=O)/C=C/c2ccccc2)cc1 reads 0.592 µM

Measured TGI, CCOC(=O)C1C(=O)CC(C)(O)C(C(=O)OCC)C1c1ccc(OC)cc1 (configuration not stated) : > 100 µM

For this compound ( COc1cc(OC)nc(NC(=O)NS(=O)(=O)c2cccc3ncn(C)c(=O)c23)n1 ), measured TGI is > 100 µM

In plain terms, Oc1ccc2c3c1OC1c4[nH]c5c(c4CC4(O)C(C2)N(CC2CC2)CC[C@]314)CC1(O)C2Cc3ccc(O)c4c3[C@@]1(CCN2CC1CC1)C5O4 (some centres not stated) has a documented TGI of > 100 µM

Memo: N=C(N)c1ccc(-c2ccc(-c3ccc(C(=N)N)cc3)o2)cc1 , reported TGI: > 100 µM

Recorded result, Clc1ccc(-c2cc(-c3nc4ccccc4[nH]3)no2)cc1 , TGI: 36.9 µM

====

Exercise: state measured TGI for each of the compounds provided.
System: MOLT-4 leukemia
Experiment: NCI tumour cell line growth inhibition, 48 h

// compound Cc1ccc(S(=O)(=O)N/N=C2/CC[C@H](C(C)(C)C)C[C@@H]2C)cc1 , assay MOLT-4 leukemia, TGI value: 31.1 µM

Field TGI (MOLT-4 leukemia), entry CCCCC/C(=N\c1nc[nH]c1C(N)=O)OCC : > 100 µM

The compound CC1(c2nc3cc(Cl)c(Cl)cc3[nH]2)CCC(C(=O)O)C(C)(C)O1 (stereo not given) , tested on MOLT-4 leukemia, showed TGI of > 100 µM

The reported MOLT-4 leukemia TGI of Cc1c(C)c2ccc(O)cc2[nH]c1=O is > 100 µM

Form field TGI for item O=c1nc2[nH]nc(-c3ccccc3)c2n[nH]1 on MOLT-4 leukemia: > 100 µM

MOLT-4 leukemia TGI of O=C(CN1CCCC1)Nc1ccc2sc3ccccc3c(=O)c2n1 is 15.6 µM

Simply: CC(=O)O[C@@H]1CC(=O)O[C@@H]2C[C@@H](CC/C(Cl)=C/C/C=C\1C)O[C@@H]2CO , MOLT-4 leukemia, TGI = > 25 µM

Lab entry: MOLT-4 leukemia assay, compound CCCNNC(=O)c1ccc(CNC(=O)/C=C/c2ccccc2)cc1 , TGI = > 100 µM

Tested system MOLT-4 leukemia; TGI recorded for O=C1NCN(c2ccccc2)C12CCN(CCCSc1ccc(F)cc1)CC2 was > 100 µM

Assay MOLT-4 leukemia, sample C(#Cc1ccccc1C#Cc1ccccn1)c1ccc(OCCCCCCOc2ccc(C#Cc3ccccc3C#Cc3ccccn3)cc2)cc1 , TGI read: 5.41 µM

Field TGI (MOLT-4 leukemia), entry CN(C)CCOc1cccc(NC2=C(Cl)C(=O)C(Nc3cccc(OCCN(C)C)c3)=C(Cl)C2=O)c1 : 0.844 µM

Reading of TGI for C#CCOc1c(OC)cc(C(=O)/C(C)=C/c2cccc(N=[N+]=[N-])c2)cc1OC with MOLT-4 leukemia: > 100 µM

Entry CC[C@@H]1C[C@@H](O)[C@@H]2[C@H](O)[C@H](O)CN2C1 under MOLT-4 leukemia had TGI of > 100 µM

Reading of TGI for COC1(C)Cc2c(c(C)c(O)c3c2C(=O)C=C(Cl)C3=O)O1 (stereo not given) with MOLT-4 leukemia: 46.2 µM

Noted TGI for CCN1CCN(Cc2ccc3cc(C(=O)Nc4cc(NC(=O)c5ccc6c(c5)OCCO6)ccc4F)ccc3n2)CC1 , tested on MOLT-4 leukemia: 2.23 µM

Per the reported MOLT-4 leukemia data, COc1cc(CNC(=O)CCCCCCCCCCSSCCCCCCCCCCC(=O)NCc2ccc(O)c(OC)c2)ccc1O has TGI of > 10 µM

Item CC(=O)OCC1OC(OC2CC3C(C)(C)C(=O)CC[C@]3(C)C3CC[C@]45C[C@]4(CCC5[C@@H](C)CC(O)C(O)C(C)(C)O)[C@]23C)C(O)C(O)C1O (stereo not given in full) was tested on MOLT-4 leukemia; the reported TGI is 15.6 µM

Note to self: TGI of COC(=O)CCC(=O)C(C#N)c1ccc(Cl)cc1Cl (stereo not given) with MOLT-4 leukemia was > 100 µM

Record CN(C)N1C(=O)CC2(CCN(CCCC(=O)c3ccc(F)cc3)CC2)C1=O / MOLT-4 leukemia, TGI recorded as > 100 µM

Sample COc1ccc(OC)c(/C=C/c2cnnc3ccccc23)c1 , system: MOLT-4 leukemia. Its TGI is > 10 µM

====

System: SF-268 CNS
Assay: NCI tumour cell line growth inhibition, 48 h; in the data active = GI50 below about 0.43 µM; inactive = the rest
Assign a class; possible classes are Yes (active), No (inactive)

Please state the recorded outcome for this molecule: C(#Cc1ccccc1C#Cc1ccccn1)c1ccc(OCCCCCCOc2ccc(C#Cc3ccccc3C#Cc3ccccn3)cc2)cc1
No

For this molecule, state the assay outcome: CC(=O)/C=C/c1ccc(N(C)Cc2ccc(C(C)(C)C)cc2)cc1
No

What outcome does the record of this test show for O=CNc1ccc2c(c1)Cc1cc([N+](=O)[O-])ccc1-2 ?
No

Answer briefly: the call reported for Cn1cc(-c2nc(-c3cn(C)c4ncccc34)cs2)c2cc(F)ccc21 in this assay.
No

Would you mind telling me which call this test gave CCOC(=O)C1=C(N)Oc2cc(OC)ccc2C1c1ccc(F)c(F)c1 (stereo not given) ?
No

What outcome does the record of this test show for N=c1c2c(=O)n3c(nc2nc2sc4ccc(Cl)cc4n12)-c1ccccc1Sc1ccccc1-3 ?
No

Any idea what this test logged for CCN(CC)CCCC(C)Nc1ccnc2cc(Cl)c(SCc3ccccc3)cc12 (stereo not given) ?
No

How was Cc1cc(Cl)ccc1Nc1nc(C(F)(F)F)ccc1C(=O)N/N=C/c1ccc(F)cc1 classified in this test?
No

For COC(=O)/C(Br)=C/c1c[nH]c2ccc(Br)cc12 , which call appears in the assay record?
No

Dear colleague, could you share the recorded outcome for COc1cccc(-c2cc(NCc3ccc4c(c3)OCO4)nc(N)n2)c1 when you have a moment?
No

What did the test return for C#CCOc1c(OC)cc(C(=O)/C(C)=C/c2cccc(N=[N+]=[N-])c2)cc1OC ?
No

What was the test verdict on N#CC(C#N)=Cc1ccc(-c2ccc(-c3nc4ccccc4s3)cc2)s1 ?
No

Which outcome did this test record for the molecule Cc1ccc(S(=O)(=O)N2C/C(=C\c3cc(F)cc(F)c3)C(=O)/C(=C/c3cc(F)cc(F)c3)C2)cc1 ?
Yes

Can you look up the reported call for Nc1nn(C(=O)Nc2ccc(Cc3ccccc3)cc2)c2ccccc12 for me?
No

Just curious, what result did C[C@H]1[C@H](C)CC[C@]2(C(=O)O)CC[C@]3(C)C(=CC[C@@H]4[C@@]5(C)CC[C@H](OC(=O)/C=C\c6ccc(O)cc6)C(C)(C)[C@@H]5CC[C@]43C)[C@H]12 get here?
No

====

System: HCT-15 colon
Experiment: NCI tumour cell line growth inhibition, 48 h
Returns Y if the recorded TGI is greater than or equal to 20 µM, and N otherwise.

Form field: TGI at least 20 µM? Entry: CC1(CC(=O)OC(C#C[Si](C)(C)C)Cc2ccccc2)OCCO1 (stereo unspecified)
Y

Exam item: decide whether the reported TGI for Cc1cc2nc3c(C#N)c(-c4ccccc4)cc(Nc4cccc(C(F)(F)F)c4)n3c2cc1C is at least 20 µM.
Y

Tell me whether TGI is at least 20 µM here: CCOC(=O)c1c2c(n3cccc(F)c13)C(=O)c1ncccc1C2=O
N

Decide: is the reported value of TGI for COc1ccc2cc(C(=O)/C=C/c3ccccc3OC)ccc2c1 equal to or greater than 20 µM?
N

TGI >= 20 µM for COc1ccc(N2C(=O)CC(c3c[nH]c4ccccc34)C2=O)cc1 (stereo unspecified) ?
Y

Textbook exercise: given the entry COC(=O)c1c/c(=N\NC(=O)CC(=O)Nc2ccc(C)cc2)c2ccccc2o1 , state whether its TGI is greater than or equal to 20 µM.
Y

Decide: TGI of CCCC[Si](CCCC)(CCCC)O[C@@H](/C=C/C(=O)OCC)[C@H](Cc1ccccc1)O[Si](CCCC)(CCCC)CCCC >= 20 µM?
Y

Could you tell me if the measured TGI of O=C(CN/C=C\C(=O)c1cc(Cl)ccc1Cl)c1ccccc1 reaches 20 µM or more?
Y

Exam item: decide whether the reported TGI for Cc1ccc(S(=O)(=O)C2=C3C(=C(c4ccccc4)c4ccccc43)CN(S(=O)(=O)c3ccc(C)cc3)C2)cc1 is at least 20 µM.
N

Confirm if TGI reported for the compound COc1cccc(-c2cc(NCc3ccc4c(c3)OCO4)nc(N)n2)c1 is 20 µM or above.
N

Check if TGI >= 20 µM (inclusive). Item: O=C1C=CC(=O)N1CCCCCCCCCCN1C(=O)C=CC1=O
Y

Entry Cn1c(C2CC(C)(C)c3c2c2ccccc2n3C)cc2ccccc21 (stereo unspecified) : is its TGI no less than 20 µM?
Y

Form field: TGI at least 20 µM? Entry: N=C1N=Nc2nc(C3(c4nc5n(c4O)C(=N)N=N5)Cc4ccccc4C3=O)c(O)n21 (stereo unspecified)
Y

Answer whether TGI of Clc1ccc(CCn2cncn2)c(Cl)c1 is greater than or equal to 20 µM.
Y

Determine whether measured TGI meets or exceeds 20 µM for N#Cc1ccccc1/C=N/O
Y

Has COc1ccc(-c2oncc2-c2cc(OC)c3c(c2)OCO3)cc1 a recorded TGI greater than or equal to 20 µM?
Y
